- assayProtocol: Cell Viability - LYMP2-011 (AID 969);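 also: cells exposed to compound for 24 hours; nearly all actives have a fitted effect of over 60% in size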
- statedConditions: LYMP2-011 lymphoblastoid cells viability; series mostly up to 92.2 µM
Records with an inconclusive call do not appear. Active and inactive are the calls of the source. Calls follow the shape of the dose curve; as a rule, active = well fitted cell-killing curve with a large enough effect; inconclusive = small, poorly fitted or top-dose-only effect; inactive = flat fitted curve, though single readings scatter.
# valid calls are True for active, False for inactive; nothing else

Q: Per the records of this test, what outcome belongs to `Oc1ccccc1-c1ccccc1` ?
Ans: False

Q: Which outcome did this test record for the compound `Oc1ccc(Cl)cc1Cc1ccccc1` ?
Ans: False

Q: Returns: the outcome recorded for NCC(O)c1ccc(O)cc1 (stereo not given) in this assay.
Ans: False

Q: Please let me know the test result on file for CNCC(O)c1ccc(O)cc1 (stereo not given) .
Ans: False

Q: Hey, what did the test say about CC(COc1ccccc1)N(CCCl)Cc1ccccc1 (stereo not given) ?
Ans: True

Q: Which result was noted for this compound in the test: Clc1ccc(COC(Cn2ccnc2)c2ccc(Cl)cc2Cl)cc1 (stereo not given)
Ans: True

Q: Status in this test for CCCC(C)(COC(N)=O)COC(=O)NC(C)C (stereo not given) ?
Ans: False

Q: Could you please tell me the result logged for `N[C@@H](Cc1ccc(N(CCCl)CCCl)cc1)C(=O)O` in this assay?
Ans: True

Q: Dear all, I need the recorded test outcome for `CCOP(=S)(OCC)Oc1cc(C)nc(C(C)C)n1` , thank you.
Ans: False

Q: State the result this test recorded for `CC(=O)Oc1ccccc1C(=O)Nc1ncc([N+](=O)[O-])s1` .
Ans: True

---

- assayProtocol: qHTS profiling for inhibitors of Plasmodium falciparum (3D7) proliferation (AID 743322);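 also: infected erythrocytes exposed to compound for 72 h before lysis; 100% = DMSO vehicle wells and 0% = 0.29 µM artemisinin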
- statedConditions: P. falciparum 3D7 proliferation; at 28.7 µM (top of the series)
measuredParameter: remaining parasite growth % (stronger effect = lower value) (%)
State the answer as a number, implicitly in %.

// sample CC(O)(CS(=O)(=O)c1ccc(F)cc1)C(=O)Nc1ccc(C#N)c(C(F)(F)F)c1 (configuration not stated) , its remaining parasite growth % (stronger effect = lower value) was 91.3

Briefly, remaining parasite growth % (stronger effect = lower value) measured for `CC1=C2C[C@@H]3[C@@H](CC=C4C[C@@H](O)CC[C@@]43C)[C@@H]2CC[C@]12O[C@H]1C[C@H](C)CN[C@H]1[C@H]2C` : 66.1

For record `Oc1cc(Cl)ccc1Oc1ccc(Cl)cc1Cl` the listed remaining parasite growth % (stronger effect = lower value) is 0.738

Reported remaining parasite growth % (stronger effect = lower value) for `Cc1cc(SCc2sc(-c3ccc(C(F)(F)F)c(F)c3)nc2C)ccc1OCC(=O)O` was 101

Noted for `C=C(C)[C@H]1Cc2c(ccc3c2O[C@@H]2COc4cc(OC)c(OC)cc4[C@@H]2C3=O)O1` : its remaining parasite growth % (stronger effect = lower value) reads 82.1

Reported remaining parasite growth % (stronger effect = lower value) for `CNC(=O)c1ccc(N2C(=S)N(c3ccc(C#N)c(C(F)(F)F)c3)C(=O)C23CCC3)cc1F` was 74.2

Measured remaining parasite growth % (stronger effect = lower value) of `CCCCC/C=C\C/C=C\C/C=C\C/C=C\CCCC(=O)NC1CC1` : 6.79

---

- assayProtocol: Primary qHTS for Vero E6 cytotoxicity: counterscreen for inhibitors of SARS-S pseudo-typed particle cell entry (AID 1479150)
- statedConditions: cell viability; series mostly up to 57.1 µM
Records with an inconclusive call do not appear. Activity calls are given as the source filed them. The call rests on the fitted dose curve.
measuredParameter: outcome

O=C(CCCN1CCC(O)(c2ccc(Cl)cc2)CC1)c1ccc(F)cc1
inactive
Cc1cn([C@H]2C[C@H](N=[N+]=[N-])[C@@H](CO)O2)c(=O)[nH]c1=O
inactive
CC(c1cc2ccccc2s1)N(O)C(N)=O (stereo unspecified)
inactive
CS(=O)(=O)CCNCc1ccc(-c2ccc3ncnc(Nc4ccc(OCc5cccc(F)c5)c(Cl)c4)c3c2)o1
inactive
CCN(C)C(=O)Oc1cccc([C@H](C)N(C)C)c1
inactive

What the record says about `OC(Cn1cncn1)(Cn1cncn1)c1ccc(F)cc1F` : outcome is inactive

The molecule CC(N)C12CC3CC(CC(C3)C1)C2 (stereo unspecified) showed outcome equal to inactive
